Reference source: paper PMC7504216

target under test: AChE from Electrophorus electricus (Electrophorus electricus)
Construct: purchased Sigma-Aldrich
Sequence (O42275 24-633): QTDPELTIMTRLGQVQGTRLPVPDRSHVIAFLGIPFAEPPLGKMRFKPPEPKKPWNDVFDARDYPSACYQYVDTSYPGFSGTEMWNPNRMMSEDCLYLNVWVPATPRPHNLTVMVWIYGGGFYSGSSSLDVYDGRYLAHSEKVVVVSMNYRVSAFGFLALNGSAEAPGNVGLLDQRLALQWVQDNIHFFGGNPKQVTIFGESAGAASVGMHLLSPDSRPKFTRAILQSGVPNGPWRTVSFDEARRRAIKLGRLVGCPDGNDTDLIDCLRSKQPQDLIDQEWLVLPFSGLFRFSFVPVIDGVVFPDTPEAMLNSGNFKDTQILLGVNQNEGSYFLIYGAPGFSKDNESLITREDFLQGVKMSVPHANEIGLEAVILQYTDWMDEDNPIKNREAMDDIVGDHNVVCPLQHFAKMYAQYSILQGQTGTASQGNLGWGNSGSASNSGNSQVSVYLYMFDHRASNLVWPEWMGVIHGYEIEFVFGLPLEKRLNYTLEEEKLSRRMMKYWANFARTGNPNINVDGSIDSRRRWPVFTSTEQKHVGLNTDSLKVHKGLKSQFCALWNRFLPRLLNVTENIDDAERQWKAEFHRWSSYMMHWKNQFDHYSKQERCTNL
assay remarks: AChE inhibition assay (Ellman, ATCI)
Format: biochemical
run parameters: read-out: Residual Activity at 10 µM (%) AChE
Classify: true (1) when remaining activity at 10 µM is strictly less than 90%; false (0) when remaining activity at 10 µM is not.

Some solved cases for reference:
INSERT INTO assay_data (compound_structure_string, qualitative_label) VALUES
  ('O=C1C[C@@H](c2ccc(O[C@@H]3O[C@H](CO)[C@@H](O)[C@H](O)[C@H]3O)cc2)Oc2cc(O)ccc21', 'false (0)'),
  ('CC1(C)[C@@H](O)CC[C@]2(C)[C@H]3C(=O)C=C4[C@@H]5C[C@@](C)(C(=O)O)CC[C@]5(C)CC[C@@]4(C)[C@]3(C)CC[C@@H]12', 'false (0)'),
  ('COc1c(CC=C(C)C)c(O)cc2oc(=O)c3c4ccc(O)cc4oc3c12', 'true (1)'),
  ('O=C1C[C@@H](c2ccc(O)cc2)Oc2cc(O)ccc21', 'false (0)'),
  ('CC1(C)[C@@H](O[C@H]2O[C@H](C(=O)O)[C@@H](O)[C@H](O)[C@H]2O[C@@H]2O[C@H](C(=O)O)[C@@H](O)[C@H](O)[C@H]2O)CC[C@]2(C)[C@H]3C(=O)C=C4[C@@H]5C[C@@](C)(C(=O)O)CC[C@]5(C)CC[C@@]4(C)[C@]3(C)CC[C@@H]12', 'false (0)');

Hi there! Is remaining activity at 10 µM for O=C(/C=C/c1ccc(O[C@@H]2O[C@H](CO)[C@@H](O)[C@H](O)[C@H]2O)cc1)c1ccc(O)cc1O below 90%, do you know?
true (1)
